Each record here notes measured GI50.
System: CAKI-1 renal
Experiment: NCI tumour cell line growth inhibition, 48 h

A selection of reference data follows.
COc1ccc(-c2cc(-c3ccc(Nc4nc(Nc5ccccc5)nc(Nc5ccc(Cl)cc5)n4)cc3)nc(N)n2)cc1; 5.4 µM
O=C(Nc1ccc(Oc2ccc(F)cc2)cc1)[C@@H]1C[C@@H](Cc2ccc(F)cc2)CN1C(=O)Cn1ccnn1; 11.5 µM
COc1cccc(/C=C/C(=O)c2ccc3cc(OC)ccc3c2)c1; 16.4 µM
COc1cc2oc(-c3cccc(C(=O)Nc4ccc(Cl)cc4)c3)cc(=O)c2c(OC)c1OC; 1.79 µM
COc1ccc(C(O)c2cc3c(N)c(C(=O)Nc4ccc(Cl)cc4)sc3nc2C)cc1 (stereo not drawn); 2.79 µM
O=C(Nc1ccc(Oc2ccc3nc(NC(=O)c4ccco4)[nH]c3c2)cc1)Nc1cc(C(F)(F)F)ccc1F; 1.81 µM
O=C1NC(=NCc2ccccc2Cl)S/C1=C\c1ccc2ncccc2c1; 4.83 µM
NC(=O)c1ccc2c(c1)-c1nc-2nc2[n-]c(nc3nc(nc4[n-]c(n1)c1ccc(C(N)=O)cc41)-c1ccc(C(N)=O)cc1-3)c1ccc(C(N)=O)cc21.[Co+2]; > 50 µM
CCOC(=O)c1c(-c2ccccc2)[n+](=O)c2cc(Cl)c(Cl)cc2n1[O-]; 1.64 µM
COc1cc(CNCCCCCCN2C(=O)c3cccc4cccc(c34)C2=O)ccc1O; 8.44 µM

stdin: Need GI50, item "CN(C)c1ccc(/C=C\c2ccnc3ccccc23)cc1"
stdout: 10.2 µM

stdin: Need GI50, item "CC(C)(C)c1cc(C(=O)Nc2ccccc2C(=O)NCCN)cc(C(C)(C)C)c1"
stdout: 2.21 µM

stdin: Need GI50, item COC1(CC[C@@H](C)COC2OC(CO)C(O)C(O)C2O)O[C@H]2C[C@H]3[C@@H]4CC=C5C[C@@H](OC6OC(CO)C(OC7OC(C)C(O)C(O)C7O)C(O)C6OC6OC(C)C(O)C(O)C6O)CC[C@]5(C)[C@H]4CC[C@]3(C)[C@H]2[C@@H]1C (stereo partly drawn)
stdout: 1.25 µM

----------
Each record here notes measured GI50.
Tested on: OVCAR-5 ovarian
Assay: NCI tumour cell line growth inhibition, 48 h

CCOC(=O)CSc1cc(Cl)c(C)cc1S(=O)(=O)/N=C(/N=C/c1ccc([N+](=O)[O-])s1)NNC; 6.02 µM
CC(=O)Nc1ccc(C(=O)CCl)cc1; 12.2 µM
CO[C@H]1C[C@@H]2CC[C@@H](C)[C@@](O)(O2)C(=O)C(=O)N2CCCC[C@H]2C(=O)O[C@H]([C@H](C)C[C@@H]2CC[C@@H](OC(=O)C(C)(CO)CO)[C@H](OC)C2)CC(=O)[C@H](C)/C=C(\C)[C@@H](O)[C@@H](OC)C(=O)[C@H](C)C[C@H](C)\C=C/C=C/C=C/1C; > 6.89 µM

stdin: Need GI50, item COc1cc2c(c(OC)c1OC)-c1ccc(NN(C(=O)c3ccccc3)C(=O)c3ccccc3)c(=O)cc1[C@@H](NC(C)=O)CC2 (tested in a mixture with another compound)
stdout: 3.95 µM

----------
Each record here notes measured TGI.
Test system: HCT-116 colon
Experiment: NCI tumour cell line growth inhibition, 48 h

Cc1ccc(CNc2ccc(Br)cc2)cc1; > 100 µM
CC(=O)C1CCN(c2ccccc2)C1 (centres undefined); > 100 µM
C#CC[C@@H]1C(=O)N(Cc2ccc(OC)cc2)[C@@H](C(C)C)C(=O)N1Cc1ccc(OC)cc1; > 100 µM
CC1=C(c2nc3ccccc3s2)C(=O)OC1(C)C; > 100 µM
CC(C)(C)OC(=O)NC1CCCC1C(=O)C1=CCCC1 (centres undefined); > 100 µM
COC(=O)C1CC2C=CC=CC(=O)C2(C)C1 (centres undefined); 86.3 µM
COc1ccc(-n2c(CCC(=O)O)nc3c2C(=O)c2ccccc2C3=O)cc1; > 100 µM
O=C(CNc1ccccn1)Nn1cnc2ccc(S(=O)(=O)Nc3ccccn3)cc2c1=O; > 100 µM
CCOC(=O)c1c(-c2ccccc2)[n+](=O)c2cc(Cl)c(Cl)cc2n1[O-]; 11.1 µM
CCCn1c2c(c3ccccc3c1=O)C(=O)c1ccccc1-2; > 100 µM

stdin: Enter reported TGI observed with HCT-116 colon for "C[C@@]1([C@H](OC(=O)c2ccccc2)C(N)=O)CO1"
stdout: 58.6 µM

stdin: Enter reported TGI observed with HCT-116 colon for "NC(N)=N/N=C/c1c(-c2ccsc2)nc2n1CCS2"
stdout: 27.3 µM

stdin: Enter reported TGI observed with HCT-116 colon for CC(C)=CCc1cc2c(cc1O)C1=C(C(=O)C3=C(C1=O)S(=O)(=O)CCN3)C(C=C(C)C)O2 (centres undefined)
stdout: 1.77 µM
